- system.under.test: T1, endogenous GLP-1 receptor of a murine insulinoma cell line (murine, UniProt O35659 22-463)
- T1 sequence (looked up): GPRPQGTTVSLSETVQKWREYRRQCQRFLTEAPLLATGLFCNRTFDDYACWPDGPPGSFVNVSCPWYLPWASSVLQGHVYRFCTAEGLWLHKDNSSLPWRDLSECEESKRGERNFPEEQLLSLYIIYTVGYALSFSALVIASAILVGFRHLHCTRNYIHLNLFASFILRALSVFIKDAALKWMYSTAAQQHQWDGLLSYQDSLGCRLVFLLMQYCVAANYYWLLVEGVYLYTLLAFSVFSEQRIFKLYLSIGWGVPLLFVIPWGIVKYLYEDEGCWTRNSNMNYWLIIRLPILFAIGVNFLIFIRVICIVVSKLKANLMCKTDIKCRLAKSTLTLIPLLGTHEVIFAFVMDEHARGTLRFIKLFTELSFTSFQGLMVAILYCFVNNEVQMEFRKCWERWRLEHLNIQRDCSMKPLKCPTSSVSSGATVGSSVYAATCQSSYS
- procedure.text: cell-based or functional assay
readout.type: EC50 GLP-1R (murine insulinoma cells) [nM] (cAMP) (nM)

INSERT INTO measurements (binder, reported_measurement) VALUES
  ('HXQGTFTSDYSKYLDEXAAKDFIEWLESA (D-Ser at position 2; Lys 17 K(Hexadecanoyl-isoGlu); C-terminal amide (-NH2)) [Compound 25]', 0.41),
  ('HXQGTFTSDYSKYLEEXAAKDFIEWLESA (Aib at position 2; Lys 17 K(Hexadecanoyl-isoGlu); C-terminal amide (-NH2)) [Compound 20]', 0.27),
  ('HXQGTFTSDYSKYLDSXAAHDFVEWLLSA (Aib at position 2; Lys 17 K(Hexadecanoyl-isoGlu); C-terminal -OH) [Compound 13]', 1.06),
  ('HXQGTFTSDYSKYLDEXAAKDFIEWLLSA (Aib at position 2; Lys 17 K(Hexadecanoyl-isoGlu); C-terminal amide (-NH2)) [Compound 4]', 0.95),
  ('HXQGTFTSDYSKYLDEXAAKDFIEWLESA (Aib at position 2; Lys 17 K(Hexadecanoyl-isoGlu); C-terminal amide (-NH2)) [Compound 15]', 0.3);
